All values here come from patent US20250002460A1.

biological target: human sortilin (sSORT) (Homo sapiens, UniProt Q99523); test: Neurotensin competitive fluorescence polarization binding assay (FPA); settings: mean IC50 values for sortilin inhibitors, IC50 (nM), 100 nM sSORT, 10 nM Neurotensin-Ahx-FITC, 1 h room temperature
Sequence (Q99523 78-756 limits assumed): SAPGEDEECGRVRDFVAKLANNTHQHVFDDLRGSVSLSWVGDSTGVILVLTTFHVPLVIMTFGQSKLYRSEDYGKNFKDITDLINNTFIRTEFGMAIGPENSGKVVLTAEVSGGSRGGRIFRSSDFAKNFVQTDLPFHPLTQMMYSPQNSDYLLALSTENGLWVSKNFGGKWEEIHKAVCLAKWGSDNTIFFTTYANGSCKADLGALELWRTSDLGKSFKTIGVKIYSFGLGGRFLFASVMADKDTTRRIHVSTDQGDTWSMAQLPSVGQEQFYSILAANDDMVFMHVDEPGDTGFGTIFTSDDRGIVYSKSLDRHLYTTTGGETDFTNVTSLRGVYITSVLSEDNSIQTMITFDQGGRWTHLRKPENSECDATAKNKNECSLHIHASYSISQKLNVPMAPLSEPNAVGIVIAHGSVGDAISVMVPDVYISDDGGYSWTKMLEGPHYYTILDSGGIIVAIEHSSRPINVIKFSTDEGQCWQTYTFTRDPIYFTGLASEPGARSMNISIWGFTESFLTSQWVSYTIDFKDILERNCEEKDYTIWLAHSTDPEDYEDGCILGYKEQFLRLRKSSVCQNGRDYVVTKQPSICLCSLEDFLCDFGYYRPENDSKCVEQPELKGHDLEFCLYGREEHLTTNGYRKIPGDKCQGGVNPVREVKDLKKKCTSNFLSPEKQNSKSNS
assay endpoint: IC50 (nM)

CC(C)(C)/C=C/C(NC(=O)c1ccc(OCc2ccccc2)nc1)C(=O)O (centres unmarked) [SI39] :: 65
CN(C)c1nccc(C(=O)NC(/C=C/C(C)(C)C)C(=O)O)n1 (centres unmarked) [SI19] :: 851
CC(C)(C)/C=C/C(NC(=O)c1ccc(Oc2cccc(Cl)c2)cc1)C(=O)O (centres unmarked) [SI54] :: 158
Cc1nc(N(C)C)ncc1C(=O)NC(/C=C/C(C)(C)C)C(=O)O (single isomer, unassigned) [SI1 (active enantiomer)] :: 9

1. CC(C)(C)/C=C/C(NC(=O)c1cc(Cl)c[nH]1)C(=O)O (centres unmarked) [SI8]
2. Cc1cc(C(=O)NC(/C=C/C(C)(C)C)C(=O)O)nc(N(C)C)n1 (centres unmarked) [SI20]
// query I'd appreciate it if you could identify which of 1 and 2 has the greater IC50. Lab log: write the label of the selected item as the result.
// result 2
(2: 1000 nM, 1: 43 nM)

a. Cc1nc(N(C)C)ncc1C(=O)NC(CCC(C)(C)C)C(=O)O (centres unmarked) [RC1, reference compound]
b. CC(C)(C)/C=C/C(NC(=O)C1CN(c2ccccn2)CCN1)C(=O)O (single isomer, unassigned) [SI3 diastereomer 2]
// query Response body: label of entry with the larger IC50; valid values a , b . Choose, then provide that item's label.
// result b
(b: 339 nM, a: 123 nM)
